Data provenance is ChEMBL document CHEMBL4196173.

# key: entry, value: hemolysis at 1 h, 300 µM
testSummary: Hemolytic activity against mouse RBC at 300 uM after 1 hr at 310 K
Assay type: ADME, cell-based, Erythrocyte
experimentalContext: mouse red blood cells (erythrocytes), read-out: Activity
Peptide text beside a SMILES is read from it.

{"compound": "CC(C)C[C@H](NC(=O)[C@H](C)NC(=O)[C@H](CCC(=O)O)NC(=O)CNC(=O)CNC(=O)[C@H](Cc1ccccc1)NC(=O)[C@H](CCCNC(=N)N)NC(=O)[C@H](Cc1c[nH]c2ccccc12)NC(=O)[C@@H](N)CCC(=O)O)C(=O)N[C@@H](Cc1ccc(O)cc1)C(=O)N[C@@H](CC(C)C)C(=O)N[C@H](C(=O)N[C@@H](CS)C(=O)NCC(N)=O)C(C)C (H-EWRFGGEALYLVCG-NH2)", "hemolysis at 1 h, 300 µM": "< 10%"}
{"compound": "CC(=O)N[C@@H](CCC(=O)O)C(=O)N[C@@H](Cc1ccccc1)C(=O)N[C@@H](CC(C)C)C(=O)N[C@@H](Cc1c[nH]c2ccccc12)C(=O)N[C@@H](C)C(=O)NCC(=O)N1CCC[C@@H]1C(=O)N1CCC[C@H]1C(=O)N[C@@H](Cc1ccc(O)cc1)C(=O)N[C@@H](C)C(=O)N[C@@H](CS)C(=O)N[C@H](C(=O)NCC(=O)N[C@@H](CCCNC(=N)N)C(=O)N[C@@H](CC(C)C)C(=O)N[C@@H](CCC(=O)O)C(N)=O)C(C)C", "hemolysis at 1 h, 300 µM": "< 10%"}

Read the next record carefully.
hemolysis at 1 h, 300 µM reported for this compound CC(=O)N[C@@H](CCC(=O)O)C(=O)N[C@@H](Cc1c[nH]c2ccccc12)C(=O)N[C@@H](CCCNC(=N)N)C(=O)N[C@@H](Cc1ccccc1)C(=O)N[C@H]1CC(=O)NC[C@@H](C(=O)N[C@@H](CC(C)C)C(=O)N[C@@H](Cc2ccc(O)cc2)C(=O)N[C@@H](CC(C)C)C(=O)N[C@H](C(=O)N[C@@H](CS)C(=O)NCC(N)=O)C(C)C)NC(=O)[C@H](CCC(=O)O)NC(=O)[C@@H]2CCCN2C(=O)[C@H]2CCCN2C(=O)CNC1=O : < 10%

* * *

testSummary: Drug uptake in human HeLa cells at 5 uM using FITC-labeled compound after 2 hrs at 310 K by trypan blue-fluorescence based FACS analysis
Format: ADME, cell-based
Peptide text beside a SMILES is read from it.

{"compound": "CC(C)C[C@H](NC(=O)[C@@H]1CNC(=O)C[C@H](NC(=O)[C@H](Cc2ccccc2)NC(=O)[C@H](CCCNC(=N)N)NC(=O)[C@H](Cc2c[nH]c3ccccc23)NC(=O)[C@@H](N)CCC(=O)O)C(=O)NCC(=O)NCC(=O)NCC(=O)N2CCC[C@@H]2C(=O)N2CCC[C@H]2C(=O)N[C@@H](CCC(=O)O)C(=O)N1)C(=O)N[C@@H](Cc1ccc(O)cc1)C(=O)N[C@@H](CC(C)C)C(=O)N[C@H](C(=O)N[C@@H](CS)C(=O)NCC(N)=O)C(C)C", "Drug uptake": "Active"}
{"compound": "CC(C)C[C@H](NC(=O)[C@H](C)NC(=O)[C@H](CCC(=O)O)NC(=O)[C@@H]1CCCN1C(=O)[C@H]1CCCN1C(=O)[C@H](Cc1ccccc1)NC(=O)[C@H](CCCNC(=N)N)NC(=O)[C@H](Cc1c[nH]c2ccccc12)NC(=O)[C@@H](N)CCC(=O)O)C(=O)N[C@@H](Cc1ccc(O)cc1)C(=O)N[C@@H](CC(C)C)C(=O)N[C@H](C(=O)N[C@H](CS)C(=O)NCC(N)=O)C(C)C", "Drug uptake": "Active"}
{"compound": "CC(C)C[C@H](NC(=O)[C@H](C)NC(=O)[C@H](CCC(=O)O)NC(=O)CNC(=O)CNC(=O)[C@H](Cc1ccccc1)NC(=O)[C@H](CCCNC(=N)N)NC(=O)[C@H](Cc1c[nH]c2ccccc12)NC(=O)[C@@H](N)CCC(=O)O)C(=O)N[C@@H](Cc1ccc(O)cc1)C(=O)N[C@@H](CC(C)C)C(=O)N[C@H](C(=O)N[C@@H](CS)C(=O)NCC(N)=O)C(C)C (H-EWRFGGEALYLVCG-NH2)", "Drug uptake": "Active"}
